Please respond with reported activity change, negative = inhibition for every item in the list.
experimental_protocol: Primary qHTS to identify inhibitors of SARS-CoV-2 cell entry (AID 1645846); note: nearly all actives have a fitted effect of over 45% in size
cond: SARS-CoV-2 pseudovirus cell entry assay, luminescence; at 57.1 µM (top of the series) unless noted
Records with an inconclusive call do not appear.
Number in %, nothing else.

According to the records, this compound CCCCC(CC)COC(=O)C(C#N)=C(c1ccccc1)c1ccccc1 (stereo not given) displays activity change, negative = inhibition of -96.1

// activity change, negative = inhibition lookup, compound = "NCCc1cnc[nH]1" , result: 0.209

// recorded activity change, negative = inhibition for "C[C@@H]1CC[C@H]2[C@@H](C)C(=O)O[C@@H]3O[C@@]4(C)CC[C@@H]1[C@]32OO4" : -32

Query "O=C(OCC(COC(=O)c1cccnc1)(COC(=O)c1cccnc1)COC(=O)c1cccnc1)c1cccnc1" yields activity change, negative = inhibition of -26.9

# activity change, negative = inhibition (compound: "C[C@@H]1C[C@H]2[C@@H]3CCC4=CC(=O)C=C[C@]4(C)[C@@]3(Cl)[C@@H](O)C[C@]2(C)[C@@]1(OC(=O)c1ccco1)C(=O)CCl" ) is -22.6

Value of activity change, negative = inhibition reported for the compound CCOCC(O)COc1ccc(NC(=O)CC[S+](C)C)cc1 (stereo not given) is -2.31

activity change, negative = inhibition measured on Nc1ccccc1C(=O)OCC(O)CO (stereo not given) = -1.98

The value of activity change, negative = inhibition measured for the compound "C#C[C@]1(O)CC[C@H]2[C@@H]3CCC4=CC(=O)CC[C@@H]4[C@H]3CC[C@@]21C" turned out to be 3.31

Lookup result for "O=C(NC1CCN(CCc2c[nH]c3ccccc23)CC1)c1ccccc1" ; measured activity change, negative = inhibition: -25.8

* * *

experimental_protocol: Cell Viability - LYMP2-003 (AID 965);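 note: cells exposed to compounds for 24 h before reading; nearly all actives have a fitted effect of over 50% in size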
cond: LYMP2-003 lymphoblastoid cell viability; series mostly up to 92.2 µM
Records with an inconclusive call do not appear. Activity calls are given as the source filed them. Calls come from the whole dose curve; as a rule, active = well fitted cell-killing curve with a large enough effect; inconclusive = small, poorly fitted or top-dose-only effect, or effect the other way; inactive = flat fitted curve, though single readings scatter.
Your answer must be one of the following: active, inactive

stdin: What outcome does the record of this test show for "O=C(CCl)c1ccc(Cl)cc1Cl" ?
stdout: active

stdin: GET /call?item= "CCCCCCCCCCCC[N+](C)(C)CCOc1ccccc1" returns the recorded outcome of this test.
stdout: active

stdin: Call for entry "Oc1c(Br)cc(Br)cc1Br" :
stdout: inactive

stdin: Can you look up the reported call for "CN(C)C(=S)SSC(=S)N(C)C" for me?
stdout: active

* * *

experimental_protocol: qHTS of pediatric cancer cell lines to identify multiple opportunities for drug repurposing: Confirmatory screen for Rh30 cells (AID 1347126); note: nearly all actives have a fitted effect of over 55% in size
cond: Rh30 rhabdomyosarcoma cell viability; series mostly up to 45.9 µM
Results filed as inconclusive are left out. The source made the active and inactive calls. The call rests on the fitted dose curve; in most records, active means well fitted cell-killing curve with a large enough effect; inconclusive means small, poorly fitted or top-dose-only effect, or effect the other way; inactive means no such curve, though single readings can be large or run the other way.
Pick from active, inactive when you respond.

stdin: # lookup: test call for "COC(=O)C1=CCCN(C)C1"
stdout: inactive

stdin: I'd appreciate the recorded outcome for "CCCCCCCCC(=O)NCc1ccc(O)c(OC)c1" from this test.
stdout: inactive

stdin: Record lookup: outcome of this test for "C[C@@H]1C[C@@H]([C@H](O)CC2CC(=O)NC(=O)C2)C(=O)[C@@H](C)C1" ?
stdout: active

stdin: # lookup: test call for ClC1=C(Cl)C2(Cl)C(CBr)CC1(Cl)C2(Cl)Cl (stereo not given)
stdout: inactive

stdin: Could you please tell me the result logged for "CC[n+]1c(-c2ccccc2)c2cc(N)ccc2c2ccc(N)cc21" in this assay?
stdout: active
